Would you kindly list IC50 for each of these compounds?
# TEST SYSTEM: BIR3 domain of XIAP (Homo sapiens (Human), UniProt P98170)
# Sequence (P98170 241-356 with tags or gaps limits assumed): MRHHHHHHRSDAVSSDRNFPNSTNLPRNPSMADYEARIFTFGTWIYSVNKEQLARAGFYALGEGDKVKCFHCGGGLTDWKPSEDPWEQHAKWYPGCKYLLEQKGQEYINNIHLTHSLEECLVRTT
# METHOD SUMMARY: TR-FRET assay for BIR3 (inhibition of binding of XIAP BIR3 domain to SMAC-derived Peptide A)
# ASSAY CONTEXT: 6x His-tagged BIR3 domain (aa 241-356 of XIAP) 10 nM, Peptide A 20 nM, TR-FRET
Counter-ions that a name gives are not always drawn.
Numbers only, in µM.

Examples with answers:
[
  {
    "COMPOUND": "CN[C@@H](C)C(=O)N[C@H]1CN(C(=O)c2ccc(N)cc2)c2cc(Cl)ccc2N(Cc2c(C)ccc3ccccc23)C1=O [Example 121, hydrochloride]",
    "IC50 / µM": 46.4
  },
  {
    "COMPOUND": "CN[C@@H](C)C(=O)N[C@H]1CN2C(=O)CCCCNC(=O)c3ccc4c(c(OC)ccc4c3)CN(C1=O)c1ccccc12 [Example 54, hydrochloride]",
    "IC50 / µM": 16
  },
  {
    "COMPOUND": "CN[C@@H](C)C(=O)N[C@H]1CN(C(=O)c2ccccc2C(C)=O)c2ccccc2N(Cc2c(C)ccc3ccccc23)C1=O",
    "IC50 / µM": 53.4
  },
  {
    "COMPOUND": "CN[C@@H](C)C(=O)N[C@H]1CN(C(=O)Cc2cccnc2)c2ccccc2N(Cc2c(C)ccc3ccccc23)C1=O [Example 96h]",
    "IC50 / µM": 13.6
  }
]

Below are 2 compounds. Give each one its IC50.
1. CN[C@@H](C)C(=O)N[C@H]1CN(C(=O)c2ccc(C)cc2)c2ccccc2N(Cc2c(C)ccc3ccccc23)C1=O [Example 96k]
2. CN[C@@H](C)C(=O)N[C@H]1CN(C(=O)c2ccc(N)cc2)c2cc(Cl)ccc2N(Cc2c(OC)ccc3c(Br)cccc23)C1=O [Example 123, hydrochloride]

*A*
1. 32.2
2. 18.7

*Q* Look up IC50 of CN[C@@H](C)C(=O)N[C@H]1CN(C(=O)c2ccc(C#N)cc2)c2cc(Cl)ccc2N(Cc2c(OC(F)F)ccc3ccccc23)C1=O [Example 139, hydrochloride] and report it.
*A* 36.9
